Experiment: Plasma concentrations and pharmacokinetics after intravenous bolus of C3G (NCA and two-compartment model)
Assay type: in vivo, Wistar rats
Conditions: male, Wistar, rat, plasma, iv, 668 nmol, non-compartmental analysis
measured_quantity: AUC(0-inf) (µM·h)
Numeric only. Scale: µM·h

Give reported AUC(0-inf) value for OC[C@H]1O[C@@H](Oc2cc3c(O)cc(O)cc3[o+]c2-c2ccc(O)c(O)c2)[C@H](O)[C@@H](O)[C@@H]1O [C3G, Cyanidin-3-O-β-glucoside]
0.0225

====

Experiment: Brain concentrations and tissue pharmacokinetics after intravenous C3G
Assay type: in vivo, Wistar rats
Conditions: male, Wistar, rat, brain, iv, 668 nmol
measured_quantity: half-life
Number first, unit second: that is the form wanted.

Please look at this compound and report its half-life: COc1cc(-c2[o+]c3cc(O)cc(O)c3cc2O[C@@H]2O[C@H](CO)[C@@H](O)[C@H](O)[C@H]2O)ccc1O [PN3G, Peonidin-3-O-β-glucoside]
15.6 min

# return recorded half-life for entry OC[C@H]1O[C@@H](Oc2cc3c(O)cc(O)cc3[o+]c2-c2ccc(O)c(O)c2)[C@H](O)[C@@H](O)[C@@H]1O [C3G, Cyanidin-3-O-β-glucoside]
8.8 min
